Just for reference, patent US8703956B2 is where these values come from.

Assay: Solubility in aqueous solutions (Example 10)
Type: physicochemical
Settings: Water + 1% Tween 20, aqueous with cosolvent or surfactant or cyclodextrin, thermodynamic from solid, Water + 1% Tween 20; read-out: Compound 1 Solubility
Where a name gives a salt, the structure may show the parent alone.
measuredQuantity: solubility

Enquiry: Reported solubility for Cc1c(Cc2ccc3ccccc3n2)c2cc(F)ccc2n1CC(=O)O [Compound 1 sodium salt] : what is it?
Return: > 26 mg/mL

* * *

Test: Solubility in aqueous solutions (Example 10)
Type: physicochemical
Details: pH 6.8 + 1% Tween 20, pH 6.8, aqueous with cosolvent or surfactant or cyclodextrin, thermodynamic from solid, pH 6.8 + 1% Tween 20; read-out: Compound 1 Solubility
Where a name gives a salt, the structure may show the parent alone.
measuredQuantity: solubility (mg/mL)
// return numeric value only (unit: mg/mL, not printed)

Enquiry: Endpoint output: solubility of Cc1c(Cc2ccc3ccccc3n2)c2cc(F)ccc2n1CC(=O)O [Compound 1 sodium salt] . Value?
Return: 0.128
